Assignment: determine reported Cmax for the given compounds.
experiment: Cmax in rat at 1 mg/kg, po; type: ADME, organism-based; design: route oral, dose 1 mg/kg; conditions: in vivo
# output: bare number, implied unit µM

For the compound CCCCc1nc(=O)c(S(=O)(=O)c2ccc(-c3ccnc(NC(=O)C4CC4)c3)cc2)c(O)n1-c1c(OC)cccc1OC , what Cmax is on record?
0.4

What do we get for CCCCc1nc(=O)c(S(=O)(=O)c2ccc(C3CC3)cc2)c(O)n1-c1c(OC)cccc1OC ?
6.2

What do we get for CCOCc1nc(O)c(-c2nnc(Cc3ccc(Cl)cn3)o2)c(O)c1-c1c(OC)cccc1OC [BMS-986224] ?
5.3

---

test: AUC (0 to 24 hrs) in rat at 1 mg/kg, po; assay type: ADME, organism-based; set-up: time < 24 hr, route oral, dose 1 mg/kg; conditions: in vivo
Assignment: determine reported AUC(0-t) at 24 h for the given compounds.
# output: bare number, implied unit µM·h

For the compound CCCCc1nc(=O)c(S(=O)(=O)c2ccc(-c3ccnc(NC(=O)C4CC4)c3)cc2)c(O)n1-c1c(OC)cccc1OC , what AUC(0-t) at 24 h is on record?
0.6

What do we get for CCOCc1nc(O)c(-c2nnc(Cc3ccc(Cl)cn3)o2)c(O)c1-c1c(OC)cccc1OC [BMS-986224] ?
16

---

target: Apelin receptor (Mus musculus, UniProt Q9WV08); assay: Agonist activity at mouse APJ receptor assessed as effect on cAMP accumulation by cAMP-Glo assay
Sequence (Q9WV08 whole entry): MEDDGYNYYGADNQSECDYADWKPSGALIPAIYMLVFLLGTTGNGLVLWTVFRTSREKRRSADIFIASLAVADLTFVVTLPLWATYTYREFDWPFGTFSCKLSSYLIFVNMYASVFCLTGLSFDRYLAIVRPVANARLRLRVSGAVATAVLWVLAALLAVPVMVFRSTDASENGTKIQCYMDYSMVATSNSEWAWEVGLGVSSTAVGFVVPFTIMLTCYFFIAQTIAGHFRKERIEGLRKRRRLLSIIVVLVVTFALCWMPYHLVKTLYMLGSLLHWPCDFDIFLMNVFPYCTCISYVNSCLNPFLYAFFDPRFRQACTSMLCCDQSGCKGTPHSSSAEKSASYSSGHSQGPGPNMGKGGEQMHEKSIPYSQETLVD
Assignment: determine reported pEC50 for the given molecules.
Please keep in mind that pEC50 is minus log10 of the molar concentration; only the number is needed.

For the molecule COc1cccc(OC)c1-n1c(COC(C)C)nc(=O)c(S(=O)(=O)c2ccc(-c3ccc(F)nc3)cc2)c1O , what pEC50 is on record?
10.52

What do we get for CCCCc1[nH]c(=O)c(S(=O)(=O)c2ccc(-c3ccncc3C)cc2)c(O)c1-c1c(OC)cccc1OC ?
10.00

What do we get for COc1cccc(OC)c1-n1c(C2CCCC2)nc(=O)c(S(=O)(=O)c2ccc(C3CC3)cc2)c1O ?
9.40

What do we get for CCCCc1nc(=O)c(S(=O)(=O)c2ccc(-c3ccnc(NC(=O)C4CC4)c3)cc2)c(O)n1-c1c(OC)cccc1OC ?
10.40

---

test: Permeability of the compound at pH 5.5 by PAMPA; type: ADME; details: read-out: permeability
Label rule met when Papp is strictly below 20 ×10⁻⁶ cm/s; at or above that, label rule not met.

Consider the molecule CCCCc1[nH]c(=O)c(S(=O)(=O)c2ccc(-n3cc(Cl)ccc3=O)cc2)c(O)c1-c1c(OC)cccc1OC . Is its Papp strictly less than 20 ×10⁻⁶ cm/s?
rule not met

What do we get for CCCCc1nc(=O)c(S(=O)(=O)c2ccc(-c3ccnc(NC(=O)C4CC4)c3)cc2)c(O)n1-c1c(OC)cccc1OC ?
rule met

What do we get for CCCCc1nc(=O)c(S(=O)(=O)c2ccc(-n3ccccc3=O)cc2)c(O)n1-c1c(OC)cccc1OC ?
rule met

What do we get for CCCCc1nc(=O)c(S(=O)(=O)c2ccc(C)cc2)c(O)n1-c1c(OC)cccc1OC ?
rule not met

What do we get for COc1cccc(OC)c1-n1c(CCC(C)C)nc(=O)c(S(=O)(=O)c2ccc(-c3ccc(F)nc3)cc2)c1O ?
rule not met

What do we get for CCCCc1nc(=O)c(S(=O)(=O)c2ccc(-n3cc(Cl)ccc3=O)cc2)c(O)n1-c1c(OC)cccc1OC ?
rule met

What do we get for CCCCc1nc(=O)c(S(=O)(=O)c2ccc(-c3ccc(F)nc3)cc2)c(O)n1-c1c(OC)cccc1OC ?
rule not met

What do we get for CCCCc1nc(=O)c(S(=O)(=O)c2ccc(-c3cccnc3OC)cc2)c(O)n1-c1c(OC)cccc1OC ?
rule not met

What do we get for CCCCc1nc(=O)c(S(=O)(=O)c2ccc(C3CC3)cc2)c(O)n1-c1c(OC)cccc1OC ?
rule not met

What do we get for CCCCc1[nH]c(=O)c(S(=O)(=O)c2ccc(-n3ccccc3=O)cc2)c(O)c1-c1c(OC)cccc1OC ?
rule met

What do we get for CCCCc1nc(=O)c(S(=O)(=O)c2ccc(-c3ccc(F)cc3)cc2)c(O)n1-c1c(OC)cccc1OC ?
rule not met

What do we get for CCCCc1[nH]c(=O)c(S(=O)(=O)c2ccc(-c3ccncc3C)cc2)c(O)c1-c1c(OC)cccc1OC ?
rule not met

What do we get for CCCCc1nc(=O)c(S(=O)(=O)c2ccccc2)c(O)n1-c1c(OC)cccc1OC ?
rule met

What do we get for COc1cccc(OC)c1-n1c(COC(C)C)nc(=O)c(S(=O)(=O)c2ccc(-c3ccc(F)nc3)cc2)c1O ?
rule met
